# assayed-system: T1, endogenous cell surface human MSLN (human, UniProt Q13421 296-598)
# T1 construct: whole, on cells; The cell line is named under assay; also called cell-surface MSLN on NCI-H226, OVCAR-3 and AsPC-1 cells
# T1 sequence (Q13421 other isoform, or with tags, fused parts or gaps limits assumed): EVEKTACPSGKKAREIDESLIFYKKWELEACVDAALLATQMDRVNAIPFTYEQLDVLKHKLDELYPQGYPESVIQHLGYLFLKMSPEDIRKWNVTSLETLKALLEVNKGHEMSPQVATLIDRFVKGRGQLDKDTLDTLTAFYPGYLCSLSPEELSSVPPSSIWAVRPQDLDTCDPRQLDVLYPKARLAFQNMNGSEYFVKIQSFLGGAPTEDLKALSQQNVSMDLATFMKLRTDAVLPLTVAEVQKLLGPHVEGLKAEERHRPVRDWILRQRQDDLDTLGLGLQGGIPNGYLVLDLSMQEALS
# assay-protocol: flow cytometry, NCI-H226 cells + 20 nM soluble MSLN
EC50 listing for selected binders.
property-name: EC50

{"columns": ["binder", "result"],
 "data": [
  ["FS22-172-003-AA/FS28-256-005 (bispecific antibody, human IgG1, kappa, L234A L235A, V domains shown, IgG1 mAb^2 with LALA) VH: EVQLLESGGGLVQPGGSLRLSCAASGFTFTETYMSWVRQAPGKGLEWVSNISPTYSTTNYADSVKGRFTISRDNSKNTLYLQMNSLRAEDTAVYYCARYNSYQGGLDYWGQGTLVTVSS VL: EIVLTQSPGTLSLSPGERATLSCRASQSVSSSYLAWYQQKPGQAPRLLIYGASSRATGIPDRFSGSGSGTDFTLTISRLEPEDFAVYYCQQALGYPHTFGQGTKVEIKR", "0.856 nM"],
  ["FS22-172-003-AA/FS28-256-012 (bispecific antibody, human IgG1, kappa, L234A L235A, V domains shown, IgG1 mAb^2 with LALA) VH: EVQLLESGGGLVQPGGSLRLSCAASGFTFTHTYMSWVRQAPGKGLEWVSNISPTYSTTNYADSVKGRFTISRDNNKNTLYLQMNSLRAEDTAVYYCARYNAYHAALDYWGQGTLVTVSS VL: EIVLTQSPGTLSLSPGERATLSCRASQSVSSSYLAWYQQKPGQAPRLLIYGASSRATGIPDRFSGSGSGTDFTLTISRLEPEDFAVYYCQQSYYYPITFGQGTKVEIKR", "6.36 nM"],
  ["FS22-172-003-AA/FS28-024-053 (bispecific antibody, human IgG1, kappa, L234A L235A, V domains shown, IgG1 mAb^2 with LALA) VH: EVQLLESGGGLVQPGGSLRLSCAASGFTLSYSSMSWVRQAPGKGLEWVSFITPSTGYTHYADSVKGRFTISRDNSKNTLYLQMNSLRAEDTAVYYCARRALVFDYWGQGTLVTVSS VL: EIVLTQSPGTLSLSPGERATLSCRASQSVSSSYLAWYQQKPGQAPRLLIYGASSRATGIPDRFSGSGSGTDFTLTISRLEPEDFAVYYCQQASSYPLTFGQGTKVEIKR", "2.77 nM"]
]}
